test system: NCI-H196 complex spheroid viability; assay: Anticancer human tumor NCI-H196 cell line growth inhibition [LSD1]; details: second compound 0.1 µM; first compound 3 µM; active compounds read low;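 also: spheroids exposed to agents for 7 days before readout; 100% = DMSO vehicle control viability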
quantity: viability, T/C (%)

>>> experimental_result("NS(=O)(=O)OCC1CC(n2ccc3c(NC4CCc5ccccc54)ncnc32)CC1O (stereo not given) + NC1CC1c1ccc(-c2cccc(O)c2)cc1")
57.5
>>> experimental_result("COc1cc(C2c3cc4c(cc3C(OC3OC5COC(C)OC5C(O)C3O)C3COC(=O)C23)OCO4)cc(OC)c1O (stereo not given) + NC1CC1c1ccc(-c2cccc(O)c2)cc1")
69.1
>>> experimental_result("CCN(c1cc(-c2ccc(CN3CCOCC3)cc2)cc(C(=O)NCc2c(C)cc(C)[nH]c2=O)c1C)C1CCOCC1 + NC1CC1c1ccc(-c2cccc(O)c2)cc1")
118
>>> experimental_result("Nc1ccccc1NC(=O)c1ccc(CNC(=O)OCc2cccnc2)cc1 + NC1CC1c1ccc(-c2cccc(O)c2)cc1")
0.4
>>> experimental_result("NS(=O)(=O)OCC1CC(n2ccc3c(NC4CCc5ccccc54)ncnc32)CC1O (stereo not given) + NC1CCC(NC2CC2c2ccccc2)CC1")
71.4
>>> experimental_result("CCN(c1cc(-c2ccc(CN3CCOCC3)cc2)cc(C(=O)NCc2c(C)cc(C)[nH]c2=O)c1C)C1CCOCC1 + NC1CCC(NC2CC2c2ccccc2)CC1")
101
>>> experimental_result("COc1cc(C2c3cc4c(cc3C(OC3OC5COC(C)OC5C(O)C3O)C3COC(=O)C23)OCO4)cc(OC)c1O (stereo not given) + NC1CCC(NC2CC2c2ccccc2)CC1")
59.7
>>> experimental_result("O=C(C=Cc1cccc(S(=O)(=O)Nc2ccccc2)c1)NO + NC1CCC(NC2CC2c2ccccc2)CC1")
0.44
>>> experimental_result("Nc1ccccc1NC(=O)c1ccc(CNC(=O)OCc2cccnc2)cc1 + NC1CCC(NC2CC2c2ccccc2)CC1")
1.24
>>> experimental_result("O=C(C=Cc1cccc(S(=O)(=O)Nc2ccccc2)c1)NO + NC1CC1c1ccc(-c2cccc(O)c2)cc1")
0.32

* * *

Test system: NCI-H196 complex spheroid viability
Assay: Anticancer human tumor NCI-H196 cell line growth inhibition [LSD1]; active = viability on the fitted dose curve at most 10% of control; inactive = the rest;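 also: spheroids exposed to agents for 7 days before readout; 100% = DMSO vehicle control viability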
Conditions: second compound 1 µM; first compound 0.01 µM
From the text: Multicellular complex tumor spheroid response to LSD1 Inhibitor Iadademstat in combination with a variety of drugs and investigational agents in selected tumor cell lines The current study was undertaken to assess response to LSD1 inhibitors in combination with standard-of-care drugs and investigational agents in solid tumor complex spheroid models as well as in the K-562 leukemia. […] Compounds. […] If the clinical Cmax for an agent had not been determined, the highest concentration tested was 10 microM. […]
Labels: active, inactive

>>> class_name("Nc1ncn(C2CC(O)C(CO)O2)c(=O)n1 (stereo unspecified) + NC1CC1c1ccc(-c2cccc(O)c2)cc1")
"inactive"
>>> class_name("COc1cc(Nc2ncc3c(n2)-c2ccc(Cl)cc2C(c2c(F)cccc2OC)=NC3)ccc1C(=O)O + NC1CC1c1ccc(-c2cccc(O)c2)cc1")
"inactive"
>>> class_name("Cn1ncnc1C1c2n[nH]c(=O)c3cc(F)cc(c23)NC1c1ccc(F)cc1 (stereo unspecified) + NC1CCC(NC2CC2c2ccccc2)CC1")
"inactive"
>>> class_name("CC1COCCN1c1cc(-c2ccnn2C)c2ccnc(-c3ccn[nH]3)c2n1 (stereo unspecified) + NC1CC1c1ccc(-c2cccc(O)c2)cc1")
"inactive"
>>> class_name("CC(C)CC(NC(=O)CNC(=O)c1cc(Cl)ccc1Cl)B1OC(=O)CC(CC(=O)O)(C(=O)O)O1 (stereo unspecified) + NC1CCC(NC2CC2c2ccccc2)CC1")
"inactive"
>>> class_name("CC(C)CC(NC(=O)C(Cc1ccccc1)NC(=O)c1cnccn1)B(O)O (stereo unspecified) + NC1CC1c1ccc(-c2cccc(O)c2)cc1")
"active"
>>> class_name("CC(C)CC(NC(=O)CNC(=O)c1cc(Cl)ccc1Cl)B1OC(=O)CC(CC(=O)O)(C(=O)O)O1 (stereo unspecified) + NC1CC1c1ccc(-c2cccc(O)c2)cc1")
"inactive"
>>> class_name("O=C(C=Cn1cnc(-c2cc(C(F)(F)F)cc(C(F)(F)F)c2)n1)NNc1cnccn1 + NC1CCC(NC2CC2c2ccccc2)CC1")
"inactive"
>>> class_name("CC1COCCN1c1cc(-c2ccnn2C)c2ccnc(-c3ccn[nH]3)c2n1 (stereo unspecified) + NC1CCC(NC2CC2c2ccccc2)CC1")
"inactive"
>>> class_name("Nc1ncn(C2CC(O)C(CO)O2)c(=O)n1 (stereo unspecified) + NC1CCC(NC2CC2c2ccccc2)CC1")
"inactive"
>>> class_name("O=C(C=Cn1cnc(-c2cc(C(F)(F)F)cc(C(F)(F)F)c2)n1)NNc1cnccn1 + NC1CC1c1ccc(-c2cccc(O)c2)cc1")
"inactive"
>>> class_name("COc1cc(Nc2ncc3c(n2)-c2ccc(Cl)cc2C(c2c(F)cccc2OC)=NC3)ccc1C(=O)O + NC1CCC(NC2CC2c2ccccc2)CC1")
"inactive"
>>> class_name("CC[C@@]1(O)C(=O)OCc2c1cc1n(c2=O)Cc2cc3c(CN(C)C)c(O)ccc3nc2-1 + NC1CCC(NC2CC2c2ccccc2)CC1")
"inactive"
>>> class_name("CC[C@@]1(O)C(=O)OCc2c1cc1n(c2=O)Cc2cc3c(CN(C)C)c(O)ccc3nc2-1 + NC1CC1c1ccc(-c2cccc(O)c2)cc1")
"inactive"
>>> class_name("CC(C)CC(NC(=O)C(Cc1ccccc1)NC(=O)c1cnccn1)B(O)O (stereo unspecified) + NC1CCC(NC2CC2c2ccccc2)CC1")
"active"
>>> class_name("Cn1ncnc1C1c2n[nH]c(=O)c3cc(F)cc(c23)NC1c1ccc(F)cc1 (stereo unspecified) + NC1CC1c1ccc(-c2cccc(O)c2)cc1")
"inactive"

Measured values drawn from PubChem BioAssay AID1918958 for this set.
